System: K4 kissing-loop RNA reporter
Assay: apparent KD of K4 kissing-loop reporter; higher = weaker reporter binding
Conditions: Eterna round: R107; input ligand: theophylline 20 uM
Test Readout: apparent KD of K4 kissing-loop reporter (nM)
Respond numerically; units are nM and should not be typed.

Note down apparent KD of K4 kissing-loop reporter recorded for AAUUAAUACAGAAGGAGCGUGUAUUUAACUACAAUUAUCUUAGCGAGUGAUGUUCGUUUUACACAGGUAGGUCGCUGUAUAUUUA [JR_ExcArginiB_Sub010]
262

Note down apparent KD of K4 kissing-loop reporter recorded for AAAUAUUCGAGUGAUGUUCGAUAAAUAUCAGAGGAUAUGCUUAAAAGCAGAAGGCUGUAUUUCUAUUUGUUAUGUAAUUUUAUAA [JR_SSFMNA_Sub021]
154

Note down apparent KD of K4 kissing-loop reporter recorded for AAGGCCAGUGAUGUUGGCUUAACCUUCGAUACCAGAACCGAUCGUUUCCCUUGGCAGCGAACACAAUACCUCACAGCGUUAAGUA [theeternabot_sameState_KL_Theo_A_8]
149

Note down apparent KD of K4 kissing-loop reporter recorded for AAAAUUGCGGUCGAAAGAACUUCUUGCAUACGAGGACCGGUACGGCCGCCACUCGAGUCAAGUGAUGUUUGAUAAUCUAUUAUUA [JR_ExcTryptoA_Sub012]
296

Note down apparent KD of K4 kissing-loop reporter recorded for UCGAUGGCCAGCGAUACCAGCCCAGUGAUGUUGGGCACAUGGUUGCGGGAAAUCCCAUUGGGCCCUUGGCAGCGCUUGCAUAGGU [Cezaat]
219

Note down apparent KD of K4 kissing-loop reporter recorded for UCCCGAGUGAUGUUCGGCGCGGUCACCGAAGGAGCGGGCGAAAGCCCAGGUAGGUCGCGGUAGCGGAGUGAUUCUCCGCGACCGC [Same State Arginine A GF 24]
344

Note down apparent KD of K4 kissing-loop reporter recorded for CUCACGCUCACAGAUACCAGUGGUGAUCCGGAUUGUAGUGAUGUUAAUUCCGCCAUCAUACACCCUUGGCAGCUGGCGUCACCUU [theeternabot_sameState_KL_Theo_B_31]
871

----------
Test system: K4 kissing-loop RNA reporter;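 note: bound reporter read as fluorescence of individual clusters on recovered sequencing chips by microscopy, with normalized cluster intensities fitted with a binding model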
Assay: apparent KD of K4 kissing-loop reporter; higher = weaker reporter binding
Settings: Eterna round: R107; input ligand: arginine 13.2 mM
Please provide measured apparent KD of K4 kissing-loop reporter for the entries that follow.
Respond numerically; units are nM and should not be typed.

Please report apparent KD of K4 kissing-loop reporter with K4 kissing-loop RNA reporter for item GGAUAGGAUAGAGGAUAUGGUUUAUGCAGGAAUAACUUAUCGUGUAAAUCCAUAGGGAGUGAUGUUCCAGAAGGCUGUCCUAUCG [MatMod 13 - Jieux - Exclusion - FMN B] .
202

Please report apparent KD of K4 kissing-loop reporter with K4 kissing-loop RNA reporter for item UGUCAUUGGUCGGCCGCCACUAGGACCGGGAGUAACCUAGUGAUGUUAGUGUGCUCGGCCGCCACUAGGACCGGGACCGAUGACU [KL-SSTryp-B22 #DoubleAptamer] .
164

Please report apparent KD of K4 kissing-loop reporter with K4 kissing-loop RNA reporter for item GGUAGCAUGGCGGCCGCCACUAAAACUGGAUCGGAAACGAUCCAGUAAUUUCGAGUGAUGUUCGUUAGGACCGGGCCAUGCUACC .
254

Please report apparent KD of K4 kissing-loop reporter with K4 kissing-loop RNA reporter for item CGUUUAUAGCAGGAUACCAGUACCCAUAAAGUACGUUAAUAGUAGAGUGAUGUUCUAAAGUACCCUUGGCAGCUUCGAGUGAGUG [ExTheophylB.R] .
114

Please report apparent KD of K4 kissing-loop reporter with K4 kissing-loop RNA reporter for item UAUUCUAAUGCGGCCGCCACUGGAAGUGAUGUUUCCUCUGGCUAUCAUUUCGGACGGUAUUGUCCCAGGACCGGGCAUCCCUCUC [theeternabot_exclusion_KL_Trp_B_4] .
101

Please report apparent KD of K4 kissing-loop reporter with K4 kissing-loop RNA reporter for item UCCCGAGUGAUGUUCGGCGCGGUCACCGAAGGAGCGGGCGAAAGCCCAGGUAGGUCGCGGUAGCGGAGUGAUUCUCCGCGACCGC [Same State Arginine A GF 24] .
241
